# measurement-target: NL20 human bronchial epithelial cells expressing human Z-AAT (Homo sapiens, UniProt P01009, E366K)
# Construct: doxycycline added with compounds)
# Sequence (P01009 25-418 E366K): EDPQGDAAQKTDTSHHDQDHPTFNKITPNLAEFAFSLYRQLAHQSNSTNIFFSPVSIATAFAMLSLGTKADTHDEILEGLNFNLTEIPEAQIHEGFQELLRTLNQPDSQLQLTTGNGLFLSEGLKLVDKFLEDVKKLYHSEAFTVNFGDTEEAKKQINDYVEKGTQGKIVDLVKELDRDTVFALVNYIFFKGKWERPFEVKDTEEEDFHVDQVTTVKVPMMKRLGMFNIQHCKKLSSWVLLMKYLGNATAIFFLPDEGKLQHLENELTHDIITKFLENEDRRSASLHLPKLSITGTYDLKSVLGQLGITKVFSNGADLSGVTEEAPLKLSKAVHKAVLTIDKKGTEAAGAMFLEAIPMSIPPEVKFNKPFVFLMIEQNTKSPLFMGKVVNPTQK
# test-details: AAT Function Assay (MSD Assay NL20-SI Cell Line)
# protocol-conditions: read-out: NL20 Functional EC50
pEC50: −log10 of the molar value.
value-type: pEC50

>>> measured("CC(C)(CC#N)c1c(-c2ccc(C(=O)O)cc2)c2c(O)cc(Cl)cc2n1-c1ccc(F)cc1")
"> 6.30"
>>> measured("COCC(C)(C)c1c(-c2ccc(C(=O)O)c(OC)c2)c2c(O)cc(F)cc2n1-c1ccc(F)c(F)c1")
"5.70 to 6.30"
>>> measured("COc1cc(C(=O)O)ccc1-c1c(C2CCOCC2)n(-c2ccc(F)cc2)c2cccc(O)c12")
"< 5.70"
>>> measured("Cc1cc(-n2c(C3CCOCC3)c(C3CC4(CC(C(=O)O)C4)C3)c3c(O)cccc32)ccc1F (racemic) [Compound 35]")
"5.70 to 6.30"
>>> measured("COCC1(c2c(-c3ccc(C(=O)O)cc3)c3c(O)cc(F)cc3n2-c2ccc(F)c(F)c2)CCCC1")
"> 6.30"
>>> measured("O=C(O)c1ncc(-c2c(C3CCOCC3)n(-c3ccc(F)cc3)c3cccc(O)c23)cc1F")
"< 5.70"
>>> measured("Cc1cc(-n2c(C3CCOCC3)c([C@H]3C[C@H](C(=O)O)C3)c3cc(F)ccc32)ccc1F")
"< 5.70"

---

# measurement-target: purified Z-AAT protein (Homo sapiens, UniProt P01009, E366K)
# Construct: Purified Z-AAT protein from human plasma
# test-details: Biochemical Assay (Z-AAT Elastase Activity Assay)
# protocol-conditions: purified Z-AAT pre-incubated with compound 1 hour, then hNE; N.D. = activity not detected up to 30 μM
value-type: IC50

>>> measured("CCC1(c2c(-c3ccc(C(=O)O)cc3)c3c(O)cc(Cl)cc3n2-c2ccc(F)c(OC)c2)COC1 [Compound 235]")
"> 5 µM"
>>> measured("O=C(O)c1ccc(-c2c3c(O)cccc3n(-c3ccc(F)cc3)c2[C@H]2C[C@H](O)C2)cc1 [Compound 188]")
"> 30 µM"
>>> measured("O=C(O)c1ccc(-c2c(C3CC4(COC4)C3)c3c(O)cc(F)cc3n2-c2ccc(F)c(F)c2)cc1 [Compound 239]")
"> 5 µM"
>>> measured("COCc1cc(-c2c(C(C)(C)COC)n(-c3ccc(F)c(F)c3)c3cc(F)cc(O)c23)ccc1C(=O)O [Compound 405]")
"2 to 5 µM"
>>> measured("N#Cc1cc(C(=O)O)cc(-c2c(C3CCOCC3)n(-c3ccc(F)cc3)c3cccc(O)c23)c1 [Compound 76]")
"> 5 µM"
>>> measured("COc1cc(-n2c(C3CCCOCC3)c(-c3ccc(C(=O)O)cc3)c3c(O)cc(F)cc32)ccc1F (stereo not shown) [Compound 516]")
"> 30 µM"
>>> measured("COCC1(c2c(-c3ccc(C(=O)O)c(O)c3)c3c(O)cc(Cl)cc3n2-c2ccc(F)c(OC)c2)CCC1 [Compound 509]")
"2 to 5 µM"

---

# measurement-target: NL20 human bronchial epithelial cells expressing human Z-AAT (Homo sapiens, UniProt P01009, E366K)
# Construct: doxycycline added with compounds)
# test-details: AAT Function Assay (MSD Assay NL20-SI Cell Line)
# protocol-conditions: read-out: NL20 Functional EC50
pEC50: −log10 of the molar value.
value-type: pEC50

>>> measured("Cc1cc(C(=O)O)ccc1-c1c(C2CCOCC2)n(-c2ccc(F)cc2)c2cccc(O)c12")
"5.70 to 6.30"
>>> measured("COCC1(c2c(-c3ccc(C(=O)O)c(OC)c3)c3c(O)c(F)ccc3n2-c2ccc(F)c(OC)c2)CCC1")
"> 6.30"
>>> measured("COc1cc(-n2c(C(C)(C)CC#N)c(-c3ccc(C(=O)O)cc3F)c3c(O)cc(Cl)cc32)ccc1F")
"> 6.30"
>>> measured("COc1cc(-n2c(C3(CC#N)CCC3)c(-c3ccc(C(=O)O)cc3)c3c(O)cc(Cl)cc32)ccc1F")
"> 6.30"
>>> measured("Cc1cc(-n2c(C3(C)CS(=O)(=O)C3)c(-c3ccc(C(=O)O)cc3)c3c(O)cccc32)ccc1F")
"< 5.70"
>>> measured("COCC(C)c1c(-c2ccc(C(=O)O)c(OC)c2)c2c(O)cc(F)cc2n1-c1ccc(F)c(OC)c1 (stereo not drawn)")
"5.70 to 6.30"
>>> measured("Cc1cc(-n2c(C3CCOCC3)c(-c3ccc(C(=O)O)cc3F)c3c(O)cc(F)cc32)ccc1F")
"> 6.30"
>>> measured("COc1cc(-n2c(C(C)(C)CO)c(-c3ccc(C(=O)O)c(OC)c3)c3c(O)cc(F)cc32)ccc1F")
"< 5.70"
>>> measured("COCC(C)(C)c1c(-c2ccc(C(=O)O)cc2)c2c(O)cc(F)cc2n1-c1ccc(F)c(F)c1")
"> 6.30"
>>> measured("CP(C)(=O)c1c(-c2ccc(C(=O)O)cc2)c2c(O)cccc2n1-c1ccc(F)cc1")
"< 5.70"
>>> measured("O=C(O)COc1ccc(-c2c(C3CCOCC3)n(-c3ccc(F)cc3)c3cccc(O)c23)cc1")
"< 5.70"
>>> measured("COCC(C)(C)c1c(-c2ccc(C(=O)O)cc2)c2c(O)cccc2n1-c1ccc(F)c(C)c1")
"> 6.30"
>>> measured("COCC(C)c1c(-c2ccc(C(=O)O)cc2)c2c(O)cc(F)cc2n1-c1ccc(F)c(F)c1 (racemic) [Compound 170]")
"> 6.30"
>>> measured("O=C(O)c1ccc(-c2c(C3CCOCC3)n(-c3ccc(F)c(F)c3)c3cccc(O)c23)cc1F")
"5.70 to 6.30"
>>> measured("Cc1cc(-n2c(C(C)(C)CC#N)c(-c3ccc(C(=O)O)cc3)c3c(O)c(F)c(F)cc32)ccc1F")
"> 6.30"
>>> measured("N#CCC1(c2c(-c3ccc(C(=O)O)cc3)c3c(O)cc(F)cc3n2-c2ccc(F)c(F)c2)CCC1")
"> 6.30"
>>> measured("CC(C)(CS(C)(=O)=O)c1c(-c2ccc(C(=O)O)cc2)c2c(O)cccc2n1-c1ccc(F)cc1")
"< 5.70"
>>> measured("COCC(C)(C)c1c(-c2ccc(C(=O)O)cc2)c2c(O)cc(F)cc2n1-c1ccc(F)cc1")
"> 6.30"
>>> measured("O=C(O)c1ccc(-n2c(C3CCOCC3)c(-c3ccnc(C(F)(F)F)c3)c3cccc(O)c32)cc1")
"< 5.70"
>>> measured("Cc1cc(-n2c(C(C)C)c(-c3nc(C(=O)O)no3)c3cc(F)ccc32)ccc1F")
"< 5.70"
>>> measured("COCC(C)(C)c1c(-c2ccc(C(=O)O)cc2)c2c(O)c(F)ccc2n1C1CCC(F)(F)CC1")
"< 5.70"
>>> measured("Cc1cc(-n2c(C(C)(C)CC#N)c(-c3sc(C(=O)O)cc3F)c3c(O)cc(F)cc32)ccc1F")
"5.70 to 6.30"
>>> measured("Cc1cc(-n2c(C(C)(C)C(F)F)c(-c3ccc(C(=O)O)cc3)c3c(O)cc(F)cc32)ccc1F")
"> 6.30"
>>> measured("CC(C)(O)c1c(-c2ccc(C(=O)O)cc2)c2c(F)cccc2n1-c1ccc(F)cc1")
"< 5.70"
>>> measured("COc1cc(-n2c(C(C)(C)CC#N)c(-c3ccc(C(=O)O)c(O)c3)c3ccc(F)cc32)ccc1F")
"> 6.30"
>>> measured("COCC1(c2c(-c3ccc(C(=O)O)cc3)c3c(O)cc(Cl)cc3n2-c2ccc(F)c(C)c2)COC1")
"5.70 to 6.30"
>>> measured("Cc1cc(-n2c(C3CCOCC3)c(-c3ccc(C(=O)O)s3)c3c(O)cccc32)ccc1F")
"5.70 to 6.30"
>>> measured("Cc1cc(-n2c(C(C)(C)CC#N)c(-c3ccc(C(=O)O)cc3)c3c(O)c(F)ccc32)ccc1F")
"> 6.30"
>>> measured("CCC1(c2c(-c3ccc(C(=O)O)cc3)c3c(O)cc(F)cc3n2-c2ccc(F)c(C)c2)COC1")
"> 6.30"
>>> measured("Cc1cc(C(=O)O)cc(-c2c(C3CCOCC3)n(-c3ccc(F)cc3)c3cccc(O)c23)c1")
"5.70 to 6.30"

---

# measurement-target: purified Z-AAT protein (Homo sapiens, UniProt P01009, E366K)
# Construct: Purified Z-AAT protein from human plasma
# test-details: Biochemical Assay (Z-AAT Elastase Activity Assay)
# protocol-conditions: purified Z-AAT pre-incubated with compound 1 hour, then hNE; N.D. = activity not detected up to 30 μM
value-type: IC50

>>> measured("COCC(C)(COC)c1c(-c2ccc(C(=O)O)cc2)c2c(O)c(F)ccc2n1-c1ccc(F)cc1")
"> 5 µM"
>>> measured("Cc1cc(-n2c(C(C)C)c(CCC(=O)O)c3cc(F)ccc32)ccc1F")
"> 30 µM"
>>> measured("COCC(C)(C)c1c(-c2ccc(C(=O)O)cc2)c2c(O)cc(C)cc2n1-c1ccc(F)cc1")
"> 5 µM"
>>> measured("CC(C)(O)Cn1cc(-c2c(C3CCOCC3)n(-c3ccc(F)cc3)c3cccc(O)c23)cn1")
"> 30 µM"
>>> measured("Cc1cc(-n2c(C(C)C)c(C3CC(C)(C(=O)O)C3)c3cc(F)ccc32)ccc1F (single isomer, unassigned)")
"> 30 µM"
>>> measured("Cc1cc(-n2c(C(C)(C)CC#N)c(-c3ccc(C(=O)O)c(OC(F)F)c3)c3c(O)cc(F)cc32)ccc1F")
"< 2 µM"
>>> measured("CCC1(c2c(-c3ccc(C(=O)O)cc3)c3c(O)cc(Cl)cc3n2-c2ccc(F)c(C)c2)COC1")
"2 to 5 µM"
>>> measured("COCC(C)(C)c1c(-c2ccc(C(=O)O)cc2OC)c2c(O)cc(Cl)cc2n1-c1ccc(F)cc1")
"> 5 µM"
>>> measured("COc1cc(-n2c(C3CCOCC3)c(-c3cccc(C(=O)O)c3)c3c(O)cc(F)cc32)ccc1F")
"> 30 µM"
>>> measured("COCC(F)(F)c1c(-c2ccc(C(=O)O)cc2)c2c(O)cccc2n1-c1ccc(F)cc1")
"> 5 µM"
>>> measured("COc1cc(-n2c(C34CCC(OC)(CC3)C4)c(-c3ccc(C(=O)O)c(O)c3)c3c(O)cccc32)ccc1F")
"> 5 µM"
>>> measured("COCC(C)(C)c1c(-c2ccc3cc(C(=O)O)oc3c2)c2c(O)cc(F)cc2n1-c1ccc(F)c(OC)c1")
"> 5 µM"
>>> measured("CCN(CC)C(=O)OCC(C)(C)c1c(-c2ccc(C(=O)O)cc2)c2c(O)c(F)ccc2n1-c1ccc(F)c(C)c1")
"> 5 µM"
>>> measured("Cc1cc(-n2c(C3CCOCC3)c(-c3ccc(C(=O)O)s3)c3c(O)cccc32)ccc1F")
"2 to 5 µM"
>>> measured("Cc1cc(-n2c(C(C)(C)CC#N)c(-c3ccc(C(=O)O)cc3)c3c(O)cc(F)cc32)ccc1F")
"< 2 µM"

Recorded values, source patent US20230159502A1.
